Reference for the values: ChEMBL document CHEMBL4041482

Tested on: Bacillus spizizenii
ASSAY_NAME: Antibacterial activity against Bacillus subtilis ATCC 6633 by microdilution method
Format: functional
Consider the following compounds and their measured MIC readings.
Express it in µM; write the number only.

Observed MIC on Bacillus spizizenii, entry CC(C)(C)OC(=O)N[C@H]1CCN(c2c(F)cc3c(=O)c(C(=O)O)cn4c3c2Oc2cc(N)ccc2-4)C1 , equals 12.5

Observed MIC on Bacillus spizizenii, entry Nc1ccc2c(c1)Oc1c(NCCN3CCOCC3)c(F)cc3c(=O)c(C(=O)O)cn-2c13 , equals 1.56

Observed MIC on Bacillus spizizenii, entry O=C(O)c1cn2c3c(c(F)c(F)cc3c1=O)Oc1cc(C(F)(F)F)ccc1-2 , equals 25
